- METHOD: reducers of endogenous Her2 protein level, primary screen, SKBR3 breast tumor cells, AlphaScreen, ATP viability (AID 461);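 note: percent of carrier control wells set as 100% viability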
- TEST CONDITIONS: 18-24 h, measured here: SKBR3 viability, ATP luminescence, at 10 µM
MEASURE NAME: viability
Give me the value, and tack the unit on after it.

O=C(Nc1cccnc1N1CCOCC1)c1ccco1 = 110%
O=S(=O)(NCCc1ccccc1F)c1cccc(S(=O)(=O)N2CCOCC2)c1 = 87%
Cc1csc(NC(=O)CSc2nsc(SCC(=O)Nc3nc(C)cs3)c2C#N)n1 = 94.5%
COc1ccccc1-c1cc(C(=O)NCCCn2ccnc2)no1 = 82%

Now, please, on to the next compound.
query: Please give the measured viability for this compound: CCN(CCCNC(=O)c1cn(CC)c2ccc(S(=O)(=O)N(C)C)cc2c1=O)c1cccc(C)c1
result: 98%

---

Assignment: determine reported inhibition for the given compounds.
- METHOD: 384-well plate pilot, post-Golgi transport modulator project, inhibition of yeast transport mutant growth (AID 636)
- TEST CONDITIONS: absorbance 615 nm, about 18 h, stronger effect = higher value
Numbers only, in %.

C=CCN(C(=O)CNC(=O)c1ccco1)C(C(=O)NC1CCCCC1)c1ccccc1F (centres undefined) = -2.43
COc1ccc(OCC(=O)N2CCN(C(=O)Cc3ccccc3)CC2)cc1 = 0
O=C(Cn1cccc1)N1CCN(C(c2ccccc2)c2ccccc2)CC1 = -6.76

Now, please, on to the next compound.
query: Please give the measured inhibition for this compound: COc1ccc(Cc2nc(-c3ccc(NC(=O)c4cccnc4)cc3)no2)cc1
result: -7.7

---

- METHOD: HUVEC growth inhibition – cell-based, human, primary screen (AID 575);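 note: 100% = median of untreated cell wells with 0.1% DMSO on each plate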
- TEST CONDITIONS: HUVEC proliferation, CellTiter-Glo luminescence, 72 h; at 10 µM; stronger effect = lower value
MEASURE NAME: viability (%)
One number for each entry, in %.

CCC(C(=O)NC1CCCC1)N(Cc1ccco1)C(=O)Cn1nnc(-c2ccc(C)cc2)n1 (stereo not given) = 106

Give viability for all molecules that follow.
1. CCN1CCN(CCCNC(=O)c2cn(CCOC)c(=O)c3c2c2ccccc2n3C)CC1
2. Cc1ccnc(NC(=O)CCC(=O)N(CC(=O)NC(C)(C)C)C2CCCC2)c1
3. CCNC(=O)Cn1cnc2c1c(=O)n(C)c(=O)n2C
4. COc1ccc(OC)c(NC(=O)CCN2CCC(C)CC2)c1

result:
1. 96.4
2. 92.7
3. 112
4. 78.3

Give viability for all molecules that follow.
1. CCN1CCCC1CNC(=O)CS(=O)(=O)Cc1nc(-c2ccccc2C)oc1C (stereo not given)
2. O=C1COc2ccc(C(=O)NCc3ccco3)cc2N1

result:
83
105

Give viability for all molecules that follow.
1. CC(Oc1ccc(Cl)cc1Cl)c1nc(-c2ccc(NC(=O)c3cccnc3)cc2)no1 (stereo not given)
2. CCOC(=O)C(NC(=O)OC(C)C)(Nc1nccs1)C(F)(F)F (stereo not given)
3. CCCCc1n[nH]c2c1C(=O)CC(C)(C)C2
4. CCOc1ccccc1C1NC(=O)NC(C)=C1C(=O)OC1CCCC1C (stereo not given)

result:
1: 55; 2: 103; 3: 102; 4: 82.5

Give viability for all molecules that follow.
1. COc1cccc(N2CCN(CC(=O)Nc3nnc(-c4ccccc4)s3)CC2)c1
2. Cc1nc2ccc(S(=O)(=O)NCC(=O)O)cc2s1
3. CC1(C)COCN1S(=O)(=O)c1ccc(C(=O)Nc2nnc(-c3ccc(Cl)s3)o2)cc1
4. CCOC(=O)C1CCCN(C(=O)c2ccc(CS(=O)(=O)Cc3ccccc3C)o2)C1 (stereo not given)
5. CCn1c2ccccc2c2cc(NC(=O)CSc3nnc(C4CC4)n3Cc3ccco3)ccc21
6. O=C(CN1CCCC1)Nc1ccc(NC(=O)Nc2ccccc2)cc1
7. OCCNCC(O)Cn1ccc2ccccc21 (stereo not given)

result:
1. 54.7
2. 110
3. 4.41
4. 84.4
5. 75.5
6. 75.3
7. 107

Give viability for all molecules that follow.
1. COC(=O)CCCCCNc1ccc(C(=O)OC)cc1N
2. Cc1ccc(S(=O)(=O)N[C@@H](C)C(=O)N2CCC(C(=O)N3CCC[C@H]3C(=O)O)CC2)cc1
3. c1ccc(CCc2nc(-c3cccnc3)no2)cc1

result:
98.5
88.7
108

Give viability for all molecules that follow.
1. O=C(NCc1ccccn1)c1cccs1
2. COc1ccccc1C1/C(=C(\O)c2c(C)nc3c(C)cccn23)C(=O)C(=O)N1CCCN(C)C (stereo not given)
3. CCCOc1cc(C)c(S(=O)(=O)N2CCN(C)CC2)cc1C
4. Cc1ccc(C)c(N2CCN(C(=O)CCCn3c(=S)[nH]c4cc5c(cc4c3=O)OCO5)CC2)c1
5. COc1ccc(CC(=O)OCc2nnc(C3COc4ccccc4O3)o2)cc1OC (stereo not given)

result:
[92.4, 85.3, 104, 62.5, 91.3]

Give viability for all molecules that follow.
1. COc1ccc(-c2nnc3sc(-c4c(OC)cccc4OC)nn23)cc1
2. CC(=O)c1c(C)nn(CC(O)COc2ccc3c(c2)CCC3)c1C (stereo not given)
3. CN(c1ccccc1)S(=O)(=O)c1ccc(C(=O)OCC(=O)NCc2ccco2)cc1
4. CCN1C(=O)N(CC)C2C1N(C(C)=O)C(=O)N2C(C)=O (stereo not given)
5. Cc1ccc(S(=O)(=O)NCCN2CCOCC2)cc1C

result:
1. 62.6
2. 94.4
3. 88.5
4. 104
5. 91.7

Give viability for all molecules that follow.
1. CCOc1ccc(CSC(CC(=O)O)C(=O)O)cc1 (stereo not given)
2. COc1ccc(NC(=O)CN(c2ccc(C)cc2)S(C)(=O)=O)c(OC)c1
3. COCC(C)NC(=O)NC(=O)c1ccc(Cl)cc1 (stereo not given)
4. CNC(=O)CC(C(=O)O)c1ccc(OCC(C)C)cc1 (stereo not given)
5. CN(C)c1nc(SCCOC(=O)c2ccccc2)nc(N(C)C)n1
6. COc1ccc(C(=O)Nc2cccc(-c3nc4ncccc4o3)c2C)cc1OC
7. COc1ccc(-c2noc(CSc3nc(N)c(-c4ccccc4)c(=O)[nH]3)n2)cc1OC
8. COc1ccccc1Cn1nnc2c(=O)[nH]c(C3CCN(C(=O)c4ccccc4Cl)CC3)nc21

result:
1: 84.1; 2: 84.8; 3: 94.6; 4: 84.4; 5: 82.1; 6: 81.8; 7: 94.6; 8: 102

query: Please give the measured viability for this molecule: CCOC(=O)CSc1ncnc2c1cnn2-c1ccc(C)cc1
result: 75

---

- METHOD: reversal of MRP1-mediated doxorubicin resistance, pilot screen, H69AR cells, doxorubicin co-treatment (AID 601)
- TEST CONDITIONS: H69AR cells + 2 uM doxorubicin, CellTiter-Glo, 72 h; at 10 µM; stronger effect = higher value
MEASURE NAME: differential viability (reversal) (%)
Give bare numbers, in %.

Cc1nnc(SCC(=O)Nc2ccc(Br)cn2)[nH]c1=O = 4.71
CCOC(=O)N1CCN(S(=O)(=O)c2ccc(Br)s2)CC1 = 7.92
COCCn1nnnc1C(c1ccc(OC)cc1)N1CCN(c2ccccc2F)CC1 (centres undefined) = 9.91

Give differential viability (reversal) for all compounds that follow.
1. O=C(CN1C(=O)c2ccccc2C1=O)Nc1ccccc1C(=O)N1CCCC1
2. CC(C)COC(=O)C1[C@H]2C(=O)N(Cc3cccs3)C[C@]23C=C[C@H]1O3 (some centres undefined)
3. Cc1cc(NC(=O)COC(=O)c2cccc(S(=O)(=O)N3CCOCC3)c2)no1
4. CCOC(=O)c1ccc(NC(=O)CCc2c(C)nc3ncnn3c2C)cc1
5. CCN1C(=O)c2cccc3c(NC(=O)c4ccc5c(c4)OCCO5)ccc1c23
6. COc1ccc(C)cc1NCc1cccc(OC)c1OC

result:
19.7
1.3
6.37
-9.71
-20.3
-6.87

Give differential viability (reversal) for all compounds that follow.
1. COc1ccccc1OCc1ccc(C(=O)NC(C)(C)C)o1
2. COc1ccccc1NC(=O)C(O)C(O)C(=O)Nc1ccccc1OC (centres undefined)
3. Cc1sc(NC(=O)CSc2nc(N)n(CC(=O)c3ccccc3)n2)c(C#N)c1C
4. CCn1nc(NC(=O)c2cccnc2)c2cc3ccccc3nc21
5. Fc1cccc2sc(N3CCOCC3)nc12
6. COC(=O)c1ccc(CSc2nnc(-c3ccncc3)o2)o1
7. CCc1nn2c(N3CCOCC3)cc(C)nc2c1-c1ccc(F)cc1
8. O=C(NCc1ccccc1)C1CCN(S(=O)(=O)N2CCCCCC2)CC1

result:
[14.6, 4.04, -0.79, 15.2, 15.4, 4.48, 31.5, 3.6]

Give differential viability (reversal) for all compounds that follow.
1. c1ccc(CN2C3=NCCCN3c3ccccc32)cc1
2. COc1ccccc1C(=O)N1CCN(C(=O)c2ccncc2)CC1
3. CCOc1ccc2c(c1)sc1nc(C(=O)OC)cc(=O)n12

result:
1: 8.3; 2: 13.7; 3: -0.545

Give differential viability (reversal) for all compounds that follow.
1. Cc1c(C(=O)O)oc2ccc(S(=O)(=O)NCCC3=CCCCC3)cc12
2. Cc1cc(C)cc(NS(=O)(=O)c2ccc3[nH]cc(C(=O)NCc4ccco4)c(=O)c3c2)c1
3. CC(NC(=O)Nc1nccs1)(C(F)(F)F)C(F)(F)F
4. CCN(CC)CCCNS(=O)(=O)c1ccc(OC)cc1
5. C=CCOC(=O)CCC(=O)Nc1cc(OC)nc(OC)n1

result:
1: 6.48; 2: -35.9; 3: 3.42; 4: -8.58; 5: 0.705

Give differential viability (reversal) for all compounds that follow.
1. Cc1cc2c(=O)n(Cc3ccco3)c(SCC(=O)NCc3ccco3)nc2s1
2. CCn1c(=O)c(C(=O)Nc2cccnc2)c(O)c2ccccc21
3. CCCC(=O)Nc1cc(C)c(NC(=O)c2ccccn2)cn1

result:
[4.87, -24.2, 9.38]

query: Please give the measured differential viability (reversal) for this compound: O=c1[nH]c(=O)n(C2CCCCCC2)c(O)c1C=NCc1ccc(F)cc1
result: -4.79
